procedure.details: Restrictive medium S. cerevisiae growth inhibition, OD615, pilot screen of yeast lifespan reduction project, restrictive growth control (AID 706);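 also: modified DeaD lifespan yeast strain shifted to restrictive glucose medium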
setup.conditions: OD615, 48 h, at 10 µM, active compounds read high
Could you please report measured growth inhibition for the items listed next?
Answer in %, number only, no unit symbol.

Looking up CC(=O)N(c1ccc(C)cc1)C1C=CS(=O)(=O)C1 (stereo unspecified) , I found its growth inhibition recorded as 7.8

Looking up Cc1ccccc1CN1CCNC(=O)C1CC(=O)O (stereo unspecified) , I found its growth inhibition recorded as -14.1

Looking up Cc1cc2ncn(CC(O)COC3CCCCC3)c2cc1C (stereo unspecified) , I found its growth inhibition recorded as -2.2

Looking up COc1cc(/C=N/n2cnnc2)ccc1OC(=O)c1cccnc1 , I found its growth inhibition recorded as -8.55

Looking up CCOc1ccc(N=Cc2c(O)cc(C)oc2=O)cc1 , I found its growth inhibition recorded as 8.93

Looking up CCOc1ccc2nc(NC(=O)Nc3cccs3)sc2c1 , I found its growth inhibition recorded as -19.9

Looking up CC(=O)NCCc1nc2ccccc2n1Cc1ccccc1 , I found its growth inhibition recorded as -2.44

Looking up C=C(C)Cn1c(CCNC(=O)C(C)(C)C)nc2ccccc21 , I found its growth inhibition recorded as 6.9

Looking up O=C(NCc1ccccc1)c1ccc(CN2CCOCC2)cc1 , I found its growth inhibition recorded as 2.15

Looking up CCOC(=O)CNC(=O)c1cn(CC)c(=O)c2cc(OC)c(OC)cc12 , I found its growth inhibition recorded as -5.67

Looking up Cc1cc(NC(=O)CSc2nnc(C)c(=O)[nH]2)no1 , I found its growth inhibition recorded as 1.15

---

procedure.details: OD615 S. cerevisiae growth inhibition, permissive medium, pilot counter-assay, permissive growth control for S. cerevisiae lifespan shortening project (AID 705)
setup.conditions: OD615, 24 h, at 10 µM, active compounds read high
experimental.readout: growth inhibition (%)
Answer in %, number only, no unit symbol.

Looking up CCOc1ccccc1NC(=O)c1c(NC(=O)CNCc2ccco2)sc2c1CCC2 , I found its growth inhibition recorded as 7.42

Looking up CSc1nnc(Cn2c(=O)sc3ccccc32)n1CCc1ccccc1 , I found its growth inhibition recorded as 3.19

Looking up O=C(CS(=O)(=O)c1c[nH]c2ccccc12)Nc1ccc2c(c1)OCCO2 , I found its growth inhibition recorded as -12.2

Looking up CSc1oc(-c2ccc(F)cc2)nc1S(=O)(=O)c1ccc(F)cc1 , I found its growth inhibition recorded as -2.23

Looking up CC(=O)C1=C(C)NC(SCC(N)=O)=C(C#N)C1c1cccnc1 (configuration not stated) , I found its growth inhibition recorded as 6.58

Looking up CCN1CCN(Cc2nc3c(c(=O)n(C)c(=O)n3C)n2C(C)C(C)=O)CC1 (configuration not stated) , I found its growth inhibition recorded as -32.2

Looking up O=C1N=C(c2ccccc2)C(c2ccccc2)N1 (configuration not stated) , I found its growth inhibition recorded as -9.57

Looking up COc1cc(NS(=O)(=O)c2ccc(NC(=O)COc3ccc(C)cc3)cc2)nc(OC)n1 , I found its growth inhibition recorded as -14.3

Looking up CC1(C)CC(NC(=O)C23CCC(C)(C(=O)C2)C3(C)C)CC(C)(C)N1 (configuration not stated) , I found its growth inhibition recorded as -4.15

Looking up CC(=O)c1cccc(NC(=O)N2CCCC2C(=O)Nc2c(C)cccc2C)c1 (configuration not stated) , I found its growth inhibition recorded as -22.1

Looking up O=C1CC(c2ccccc2)c2cc(O)ccc2O1 (configuration not stated) , I found its growth inhibition recorded as -23.7

Looking up NC(=O)CN1CCN(C(=O)NC2CCCCC2)CC1 , I found its growth inhibition recorded as -18.1

Looking up Cc1c(C(=O)NCCC2=CCCCC2)oc2ccc(S(=O)(=O)N3CCOCC3)cc12 , I found its growth inhibition recorded as 2.48

Looking up CCn1c(C2CC(=O)N(c3ccc(C)c(C)c3)C2)nc2ccccc21 (configuration not stated) , I found its growth inhibition recorded as -6.54

Looking up COCCCNC(=O)CS(=O)Cc1nc(-c2ccccc2C)oc1C (configuration not stated) , I found its growth inhibition recorded as -4.76

Looking up COC1CCCCC1NS(=O)(=O)c1ccc(Cl)cc1 (configuration not stated) , I found its growth inhibition recorded as 1.43

Looking up C=CCOC(=O)C1=C(C)NC(C)=C(C(=O)OCC=C)C1c1ccc(O)cc1 , I found its growth inhibition recorded as -6.92
